system: Human immunodeficiency virus 1; assay: Antiviral activity against drug-resistant HIV-1 harboring RT L100I mutant infected in human MT4 cells assessed as protection against virus-induced cytopathicity measured after 5 days post-infection by MTT assay; format: functional, organism-based; details: Human immunodeficiency virus 1, MT4, 120 h
// assign T if EC50 falls strictly below 30 nM, else F (ties count as F)

| Molecule | Classification |
| --- | --- |
| [2H]C([2H])([2H])c1cc(C#N)cc(C([2H])([2H])[2H])c1Oc1nc(NC2CCN(Cc3ccc(S(N)(=O)=O)cc3)CC2)nc2sccc12 | T |
| O=C1Nc2ccc(Cl)cc2[C@@](C#CC2CC2)(C(F)(F)F)O1 [EFAVIRENZ] | F |
| Cc1ccnc2c1NC(=O)c1cccnc1N2C1CC1 [NEVIRAPINE] | F |
| Cc1cc(C#N)cc(C)c1Oc1nc(Nc2ccc(C#N)cc2)nc(N)c1Br [ETRAVIRINE] | T |
| [2H]C([2H])([2H])c1cc(/C=C/C#N)cc(C([2H])([2H])[2H])c1Nc1ccnc(Nc2ccc(C#N)cc2)n1 | T |
| Cc1cc(-c2ccc(C#N)cc2)cc(C)c1Nc1ccnc(Nc2ccc(C#N)cc2)n1 | T |

###

experiment: Stability in human plasma assessed as compound remaining at 1 uM measured immediately by LC-MS/MS analysis; type: ADME, cell-free; details: read-out: Stability

| Sample Smiles | remaining at 0 h, 1 µM |
| --- | --- |
| [2H]C([2H])([2H])c1cc(C#N)cc(C([2H])([2H])[2H])c1Oc1nc(NC2CCN(Cc3ccc(S(N)(=O)=O)cc3)CC2)nc2ccsc12 | 100% |
| CC[C@H](C)C(=O)O[C@H]1C[C@@H](C)C=C2C=C[C@H](C)[C@H](CC[C@@H]3C[C@@H](O)CC(=O)O3)[C@H]21 | 100% |

###

assay: MRT (0 to t) in Sprague-Dawley rat at 10 mg/kg, po measured for 0.083 to 24 hrs by LC-MS/MS analysis; format: ADME, organism-based; conditions: in vivo, time 0.083-24 hrs
Measurement Label: MRT last (h)

| Sample Smiles | Recorded Result |
| --- | --- |
| [2H]C([2H])([2H])c1cc(C#N)cc(C([2H])([2H])[2H])c1Oc1nc(NC2CCN(Cc3ccc(S(N)(=O)=O)cc3)CC2)nc2ccsc12 | 2.38 |

###

target: Voltage-gated inwardly rectifying potassium channel KCNH2 (Homo sapiens, UniProt Q12809); assay: Inhibition of hERG expressed in CHO cells by manual patch-clamp electrophysiology
Sequence (Q12809 whole entry): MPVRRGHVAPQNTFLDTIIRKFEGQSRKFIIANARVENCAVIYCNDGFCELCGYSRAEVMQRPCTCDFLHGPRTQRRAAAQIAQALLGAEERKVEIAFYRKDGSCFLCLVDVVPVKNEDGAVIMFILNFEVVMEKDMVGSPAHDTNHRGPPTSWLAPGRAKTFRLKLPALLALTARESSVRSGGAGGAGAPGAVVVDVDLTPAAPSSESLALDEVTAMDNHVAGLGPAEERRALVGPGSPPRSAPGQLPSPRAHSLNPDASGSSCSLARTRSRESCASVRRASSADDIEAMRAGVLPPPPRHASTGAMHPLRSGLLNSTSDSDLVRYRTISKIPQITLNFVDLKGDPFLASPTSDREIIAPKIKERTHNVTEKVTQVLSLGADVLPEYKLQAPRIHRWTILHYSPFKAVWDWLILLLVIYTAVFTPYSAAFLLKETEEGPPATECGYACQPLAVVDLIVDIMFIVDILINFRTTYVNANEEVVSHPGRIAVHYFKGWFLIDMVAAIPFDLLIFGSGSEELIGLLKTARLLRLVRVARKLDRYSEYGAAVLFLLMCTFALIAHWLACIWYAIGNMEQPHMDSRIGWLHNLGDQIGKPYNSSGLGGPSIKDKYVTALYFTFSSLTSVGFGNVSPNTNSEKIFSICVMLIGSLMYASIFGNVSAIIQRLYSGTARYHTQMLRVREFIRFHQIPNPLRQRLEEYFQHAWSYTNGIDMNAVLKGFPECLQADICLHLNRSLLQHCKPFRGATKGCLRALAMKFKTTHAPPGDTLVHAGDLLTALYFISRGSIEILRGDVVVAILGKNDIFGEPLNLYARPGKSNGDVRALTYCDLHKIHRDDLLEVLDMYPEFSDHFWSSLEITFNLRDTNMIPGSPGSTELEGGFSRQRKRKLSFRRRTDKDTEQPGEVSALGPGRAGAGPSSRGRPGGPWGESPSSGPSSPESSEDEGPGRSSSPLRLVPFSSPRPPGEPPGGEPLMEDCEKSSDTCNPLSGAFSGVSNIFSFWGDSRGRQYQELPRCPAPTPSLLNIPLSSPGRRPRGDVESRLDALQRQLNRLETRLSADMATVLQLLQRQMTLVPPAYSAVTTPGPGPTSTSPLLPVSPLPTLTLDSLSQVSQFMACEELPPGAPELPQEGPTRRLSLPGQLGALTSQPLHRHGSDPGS
pIC50: −log10 of the molar value.

| Sample Smiles | pIC50 |
| --- | --- |
| [2H]C([2H])([2H])c1cc(C#N)cc(C([2H])([2H])[2H])c1Oc1nc(NC2CCN(Cc3ccc(S(N)(=O)=O)cc3)CC2)nc2ccsc12 | 6.03 |

###

experiment: Selectivity index, ratio of CC50 for cytotoxicity against human MT4 cells to EC50 for antiviral activity against wild-type HIV-1 IIIB infected in human MT4 cells; format: toxicity, cell-based; conditions: read-out: Ratio CC50/EC50
Measurement Label: selectivity ratio

| Sample Smiles | Measurement Label | Recorded Result |
| --- | --- | --- |
| [2H]C([2H])([2H])c1cc(C#N)cc(C([2H])([2H])[2H])c1Oc1nc(NC2CCN(Cc3ccc(S(N)(=O)=O)cc3)CC2)nc2ccccc12 | selectivity ratio | 4440 |
| [2H]C([2H])([2H])c1cc(C#N)cc(C)c1Oc1nc(NC2CCN(Cc3ccc(C(N)=O)cc3)CC2)nc2ccsc12 | selectivity ratio | > 18900 |
| [2H]C([2H])([2H])c1cc(C#N)cc(C)c1Oc1nc(NC2CCN(Cc3ccc(C(N)=O)cc3)CC2)nc2ccccc12 | selectivity ratio | 27900 |
| [2H]C([2H])([2H])c1cc(C#N)cc(C([2H])([2H])[2H])c1Oc1nc(NC2CCN(Cc3ccc(S(N)(=O)=O)cc3)CC2)nc2ccsc12 | selectivity ratio | > 227000 |
| [2H]C([2H])([2H])c1cc(C#N)cc(C)c1Oc1nc(NC2CCN(Cc3ccc(C(N)=O)cc3)CC2)nc2scnc12 | selectivity ratio | 10800 |
| [2H]C([2H])([2H])c1cc(C#N)cc(C([2H])([2H])[2H])c1Oc1nc(NC2CCN(Cc3ccc(S(N)(=O)=O)cc3)CC2)nc2scnc12 | selectivity ratio | 8290 |
| [2H]C([2H])([2H])c1cc(C#N)cc(C([2H])([2H])[2H])c1Oc1nc(NC2CCN(Cc3ccc(C(N)=O)cc3)CC2)nc2ccsc12 | selectivity ratio | > 47200 |
| [2H]C([2H])([2H])c1cc(C#N)cc(C([2H])([2H])[2H])c1Oc1nc(NC2CCN(Cc3ccc(C(N)=O)cc3)CC2)nc2ccccc12 | selectivity ratio | 12300 |
| [2H]C([2H])([2H])c1cc(C#N)cc(C)c1Oc1nc(NC2CCN(Cc3ccc(S(N)(=O)=O)cc3)CC2)nc2ccccc12 | selectivity ratio | > 74600 |
| [2H]C([2H])([2H])c1cc(C#N)cc(C([2H])([2H])[2H])c1Oc1nc(NC2CCN(Cc3ccc(C(N)=O)cc3)CC2)nc2scnc12 | selectivity ratio | 9130 |
| Cc1cc(-c2ccc(C#N)cc2)cc(C)c1Nc1ccnc(Nc2ccc(C#N)cc2)n1 | selectivity ratio | 3280 |
| [2H]C([2H])([2H])c1cc(C#N)cc(C([2H])([2H])[2H])c1Oc1nc(NC2CCN(Cc3ccc(S(N)(=O)=O)cc3)CC2)nc2sccc12 | selectivity ratio | > 34500 |
| [2H]C([2H])([2H])c1cc(-c2ccc(C#N)cc2)cc(C)c1Nc1ccnc(Nc2ccc(C#N)cc2)n1 | selectivity ratio | 2370 |
| [2H]C([2H])([2H])c1cc(C#N)cc(C)c1Oc1nc(NC2CCN(Cc3ccc(C(N)=O)cc3)CC2)nc2sccc12 | selectivity ratio | > 27200 |

###

assay: MRT (0 to infinity) in Sprague-Dawley rat at 1 mg/kg, iv measured for 0.083 to 24 hrs by LC-MS/MS analysis; format: ADME, organism-based; conditions: in vivo, time 0.083-24 hrs

| Sample Smiles | MRT inf |
| --- | --- |
| [2H]C([2H])([2H])c1cc(C#N)cc(C([2H])([2H])[2H])c1Oc1nc(NC2CCN(Cc3ccc(S(N)(=O)=O)cc3)CC2)nc2ccsc12 | 50.4 min |

###

test: Stability in human plasma assessed as compound remaining at 1 uM measured after 3 hrs by LC-MS/MS analysis; format: ADME, cell-free; conditions: read-out: Stability
Form field: remaining at 3 h, 1 µM (one value per entry).

| Sample Smiles | remaining at 3 h, 1 µM (%) |
| --- | --- |
| CC[C@H](C)C(=O)O[C@H]1C[C@@H](C)C=C2C=C[C@H](C)[C@H](CC[C@@H]3C[C@@H](O)CC(=O)O3)[C@H]21 | 33.3 |
| [2H]C([2H])([2H])c1cc(C#N)cc(C([2H])([2H])[2H])c1Oc1nc(NC2CCN(Cc3ccc(S(N)(=O)=O)cc3)CC2)nc2ccsc12 | 92.2 |

###

assay: Cytotoxicity against human MT4 cells assessed as reduction in cell viability by MTT assay; type: toxicity, cell-based
Form field: CC50 (one value per entry).

| Compound | CC50 |
| --- | --- |
| [2H]C([2H])([2H])c1cc(C#N)cc(C([2H])([2H])[2H])c1Oc1nc(NC2CCN(Cc3ccc(C(N)=O)cc3)CC2)nc2ccsc12 | > 241 µM |
| [2H]C([2H])([2H])c1cc(C#N)cc(C)c1Oc1nc(NC2CCN(Cc3ccc(S(N)(=O)=O)cc3)CC2)nc2ccccc12 | > 229 µM |
| [2H]C([2H])([2H])c1cc(C#N)cc(C([2H])([2H])[2H])c1Oc1nc(NC2CCN(Cc3ccc(S(N)(=O)=O)cc3)CC2)nc2sccc12 | > 225 µM |
| [2H]C([2H])([2H])c1cc(C#N)cc(C)c1Oc1nc(NC2CCN(Cc3ccc(S(N)(=O)=O)cc3)CC2)nc2sccc12 | > 227 µM |
| O=C1Nc2ccc(Cl)cc2[C@@](C#CC2CC2)(C(F)(F)F)O1 [EFAVIRENZ] | > 6.34 µM |

###

Form field: EC50 (one value per entry).
system: Human immunodeficiency virus 1; assay: Antiviral activity against drug-resistant HIV-1 harboring RT Y188L mutant infected in human MT4 cells assessed as protection against virus-induced cytopathicity measured after 5 days post-infection by MTT assay; type: functional, organism-based; conditions: Human immunodeficiency virus 1, MT4, 120 h
Measurement Label: EC50 (nM)

| Sample Smiles | Study Target | Unit Spec | Recorded Result |
| --- | --- | --- | --- |
| [2H]C([2H])([2H])c1cc(C#N)cc(C)c1Oc1nc(NC2CCN(Cc3ccc(C(N)=O)cc3)CC2)nc2ccccc12 | Human immunodeficiency virus 1 | nM | 67.8 |
| Cc1cc(/C=C/C#N)cc(C)c1Nc1ccnc(Nc2ccc(C#N)cc2)n1 | Human immunodeficiency virus 1 | nM | 54 |
| [2H]C([2H])([2H])c1cc(C#N)cc(C)c1Oc1nc(NC2CCN(Cc3ccc(C(N)=O)cc3)CC2)nc2scnc12 | Human immunodeficiency virus 1 | nM | 52.9 |
| [2H]C([2H])([2H])c1cc(C#N)cc(C([2H])([2H])[2H])c1Oc1nc(NC2CCN(Cc3ccc(C(N)=O)cc3)CC2)nc2ccsc12 | Human immunodeficiency virus 1 | nM | 57.6 |
| [2H]C([2H])([2H])c1cc(C#N)cc(C([2H])([2H])[2H])c1Oc1nc(NC2CCN(Cc3ccc(S(N)(=O)=O)cc3)CC2)nc2ccsc12 | Human immunodeficiency virus 1 | nM | 5.18 |
| [2H]C([2H])([2H])c1cc(/C=C/C#N)cc(C)c1Nc1ccnc(Nc2ccc(C#N)cc2)n1 | Human immunodeficiency virus 1 | nM | 72.6 |
| [2H]C([2H])([2H])c1cc(C#N)cc(C([2H])([2H])[2H])c1Oc1nc(NC2CCN(Cc3ccc(S(N)(=O)=O)cc3)CC2)nc2scnc12 | Human immunodeficiency virus 1 | nM | 46 |
| [2H]C([2H])([2H])c1cc(C#N)cc(C([2H])([2H])[2H])c1Oc1nc(NC2CCN(Cc3ccc(C(N)=O)cc3)CC2)nc2sccc12 | Human immunodeficiency virus 1 | nM | 61.6 |
